The origin of these recorded values is patent US7285556B2.

# subject.of.test: N23 neuronal Src variant (Homo sapiens)
# Sequence (P12931 1-553 isoform P12931-3): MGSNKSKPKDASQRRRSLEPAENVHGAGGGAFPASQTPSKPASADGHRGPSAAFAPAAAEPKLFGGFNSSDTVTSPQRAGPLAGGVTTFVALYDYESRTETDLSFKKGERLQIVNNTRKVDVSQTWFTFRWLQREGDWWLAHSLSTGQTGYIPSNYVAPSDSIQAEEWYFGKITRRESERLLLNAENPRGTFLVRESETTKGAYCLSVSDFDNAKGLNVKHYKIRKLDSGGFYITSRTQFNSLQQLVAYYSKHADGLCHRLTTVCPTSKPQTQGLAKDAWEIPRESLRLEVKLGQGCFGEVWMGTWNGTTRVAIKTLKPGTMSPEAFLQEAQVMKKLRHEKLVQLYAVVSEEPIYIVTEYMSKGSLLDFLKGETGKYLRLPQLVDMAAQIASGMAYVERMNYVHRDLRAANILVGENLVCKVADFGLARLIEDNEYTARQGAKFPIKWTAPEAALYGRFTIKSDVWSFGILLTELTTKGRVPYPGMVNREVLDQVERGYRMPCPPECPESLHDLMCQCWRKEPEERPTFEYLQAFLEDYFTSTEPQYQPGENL
# test: Testing against neuronal Src variant N23
# particulars: Table 5
pIC50: −log10 of the molar value.
Listing: pIC50 of selected molecules

molecule.smiles	subject.of.test	pIC50
Cc1csc2c(NN=Cc3cccs3)ncnc12	N23 neuronal Src variant (Homo sapiens)	6.08
Cc1csc2c(NN=Cc3cccnc3)ncnc12	N23 neuronal Src variant (Homo sapiens)	6.55
C(=NNc1ncnc2cc(-c3ccccc3)sc12)c1cccnc1	N23 neuronal Src variant (Homo sapiens)	6.92
COc1ccc(C=NNc2ncnc3c(C)csc23)cc1O	N23 neuronal Src variant (Homo sapiens)	6.29

---

List of IC50 values.
# subject.of.test: Csk (Homo sapiens)
# Construct: GST (glutathione-S-transferase) (N); made in house; host or cells: E. coli (pGEX vector)
# Sequence (P41240 whole entry, species assumed): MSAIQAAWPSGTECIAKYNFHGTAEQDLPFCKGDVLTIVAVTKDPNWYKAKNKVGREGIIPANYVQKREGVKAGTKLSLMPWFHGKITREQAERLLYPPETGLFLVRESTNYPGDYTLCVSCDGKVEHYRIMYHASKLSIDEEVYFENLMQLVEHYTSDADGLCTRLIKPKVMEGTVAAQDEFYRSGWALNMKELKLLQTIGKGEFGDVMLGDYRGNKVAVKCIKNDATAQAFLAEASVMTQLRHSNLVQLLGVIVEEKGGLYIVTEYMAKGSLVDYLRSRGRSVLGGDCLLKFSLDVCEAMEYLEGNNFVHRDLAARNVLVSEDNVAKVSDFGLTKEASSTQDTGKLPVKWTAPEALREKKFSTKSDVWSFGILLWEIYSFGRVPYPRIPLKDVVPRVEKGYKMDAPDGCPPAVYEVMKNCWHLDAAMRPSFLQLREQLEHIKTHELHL
# test: Csk tyrosine kinase activity, poly E4Y and 32P-ATP
# Assay type: biochemical
# particulars: screening assay, 50 μg/ml poly E4Y, 0.2 mM 32P-ATP

molecule.smiles	subject.of.test	IC50
CCCOc1ccc(C=NNc2ncnc3c(C)csc23)cc1	Csk (Homo sapiens)	> 153 µM
Cc1csc2c(NN=Cc3ccccn3)ncnc12	Csk (Homo sapiens)	> 186 µM
Clc1ccc(-c2cc3ncnc(NN=Cc4cccs4)c3s2)cc1	Csk (Homo sapiens)	> 135 µM
Cc1csc2c(NN=Cc3ccsc3)ncnc12	Csk (Homo sapiens)	> 182 µM
COc1ccc(C=NNc2ncnc3cc(I)sc23)cc1O	Csk (Homo sapiens)	> 117 µM
COc1ccc(-c2cc3ncnc(NN=Cc4cccs4)c3s2)cc1	Csk (Homo sapiens)	> 136 µM
Ic1cc2ncnc(NN=Cc3cccs3)c2s1	Csk (Homo sapiens)	> 129 µM
Cc1csc2c(NN=Cc3nccs3)ncnc12	Csk (Homo sapiens)	> 182 µM
Clc1ccc(-c2cc3ncnc(NN=Cc4cccnc4)c3s2)cc1	Csk (Homo sapiens)	> 137 µM
Cc1csc2c(NN=Cc3ccc(F)cc3)ncnc12	Csk (Homo sapiens)	> 175 µM
COc1ccc(-c2cc3ncnc(NN=Cc4ccc(OC)c(O)c4)c3s2)cc1	Csk (Homo sapiens)	> 123 µM
Cc1csc2c(NN=Cc3ccco3)ncnc12	Csk (Homo sapiens)	> 194 µM
Cc1c(-c2ccccc2)sc2c(NN=Cc3cccs3)ncnc12	Csk (Homo sapiens)	> 143 µM
Cc1csc2c(NN=Cc3ccc(C#N)cc3)ncnc12	Csk (Homo sapiens)	> 170 µM
Cc1c(/C=C/c2ccccc2)sc2c(NN=Cc3cccnc3)ncnc12	Csk (Homo sapiens)	> 135 µM
